All figures here come from patent US20260242398A1.

Reported pIC50 values are given for each entry in this list.
Tested on: phosphorylation of AKT (pAKT) in T47D cells expressing mutant PI3Ka (H1047R)
Experiment notes: In vitro cell pAKT (Ser473) HTRF, T47D cells
Format: cell-based
Stated conditions: read-out: Avg T-47D IC50, inhibition of pAKT, 6 hour
pIC50: −log10 of the molar value.

Dear colleague, I am looking for the recorded pIC50 of the following molecule: Cc1cc(C(C)Nc2ccccc2C(=O)O)c2nc(N3CC[Si](C)(C)CC3)n(C)c(=O)c2c1 (single isomer, unassigned) [Example 1]
6.00 to 9.00

Further cases:
Dear colleague, I am looking for the recorded pIC50 of the following molecule: Cc1cc(C(C)Nc2ccccc2C(=O)O)c2nc(N3CC[Si](C)(C)CC3)n(C)c(=O)c2c1 (single isomer, unassigned) [Example 2]
< 4.82
